src = a melting point compilation (Tetko et al.; mined from patent text by program, amines drawn as free bases though some values may be those of a salt)

Below is a list of entries, each paired with its recorded melting point value.

Worked examples follow.
O=C(NCc1cccc(C(F)(F)F)c1)c1sc2ccccc2c1O = 139 to 141 °C
COc1ccc(N2C(=O)/C(=C/C(C)=NO)C2c2ccccc2)cc1 (stereo unspecified) = 204 to 206 °C

Record request: melting point value, item "CCCn1c(=Nc2ccc(C(=O)OCC)cc2)sc2ncccc2c1=O"
115 to 117 °C

Same again, this time with OCC1Cc2sccc2CN1 (racemic)
110 °C

Same again, this time with "Cn1nc(CBr)cc1C(=O)NCCc1ccccc1"
112 to 113 °C

Same again, this time with "CCCCc1nc2c(N)nc3ccccc3c2n1CCCCCS(C)(=O)=O"
173 to 175 °C

Same again, this time with "COc1ccc2c(c1)nc(C)n2-c1ccccc1"
88 to 90 °C

Same again, this time with "COC(=O)C1=C(c2cc(OC)c(OC)c(OC)c2)c2ccccc2S(=O)(=O)N1Cc1ccc2c(c1)OCO2"
182 to 183 °C

Same again, this time with "COC(=O)c1sccc1S(=O)(=O)NC(=O)Nc1nc(C)cc(OC(F)F)n1"
178 to 179 °C

Same again, this time with O=C1NN=C(c2cccc([N+](=O)[O-])c2)C2CC12 (stereo unspecified)
220 to 221 °C

Same again, this time with "Nc1c(Cl)cc(C(=O)Cl)cc1Cl"
165 °C

----------
readoutType: melting point

Worked examples follow.
CC1(O)c2ccccc2C=C(Br)c2ccncc21 (stereo not given) = 226 to 230 °C
Cc1cccc(-n2nc(C)cc2-c2ccnc(NCc3ccccc3)c2)c1 = 73 to 75 °C
CCCCCCCCCCCCSc1cc(SCCCCCCCCCCCC)c([N+](=O)[O-])c(C(=O)O)c1 = 74 to 77 °C
CCOC(=O)c1cn(CC)c2nc(C=O)c(O)cc2c1=O = 243 to 245 °C
Cc1nc(C(F)(F)F)ccc1C(=O)C1=C(O)C2CC2C(C)(S(C)=O)C1=O (stereo not given) = 160 °C

Record request: melting point value, item O=C1Nc2ccccc2C12COc1ccc3c(c12)N(Cc1ncccc1C(F)(F)F)ON3 (stereo not given)
212 to 215 °C

Same again, this time with "CC(N)=CC(=O)NCCN1CCOCC1"
86 to 93 °C

Same again, this time with "COC1=C(OC)C(=O)C2=C(CC(CCCCCCCC(N)=O)(C(N)=O)C2)C1=O"
140 to 143 °C

Same again, this time with "N#Cc1ccc2c(c1)Sc1ccc([N+](=O)[O-])cc1C=C2"
234 to 236 °C

Same again, this time with "CCCCC(=O)C(=C1NCCCS1)[N+](=O)[O-]"
61.5 to 64 °C

----------
readoutType: melting point

Worked examples follow.
COc1ccc(Cl)c(OC)c1C(=O)O = 132 to 133 °C
CCCCn1cnc2c(Oc3cccc(OC)c3)nc(Nc3ccc(F)cc3)nc21 = 138 to 140 °C
COC(=O)c1cc(Cl)c(-n2[nH]c(N)cc2=O)c(Cl)c1 = 225 to 229 °C

Record request: melting point value, item "CC(C)(C)[C@@H](CO)NC(=O)[C@@H](CC(=O)O)n1ccc(-c2ccc(-c3ccncc3)cc2)c1"
192 to 194 °C

Same again, this time with "COc1ccc(-n2c(=O)c3c(N4CCN(C)CC4)cc(Cl)cc3n(Cc3ccccc3)c2=O)cc1"
155 to 158 °C

Same again, this time with "CC(C)Cc1cnc(O)c([N+](=O)[O-])c1"
161 to 163 °C

Same again, this time with "O=c1[nH]c2occc2c2ccccc12"
216 to 218 °C

Same again, this time with "COc1ccc(C=O)cc1I"
104 to 107 °C

Same again, this time with CCOC(=O)C1=C(Cl)/C(=N/OS(C)(=O)=O)CC(c2ccc(Cl)c(OC)c2F)N1 (stereo unspecified)
60 to 62 °C

Same again, this time with "COc1cc(OC)c2c(=O)cc(-c3ccc(OC)c(I)c3)oc2c1"
209 to 210 °C

Same again, this time with CCC(CO)NC(=O)C(C)(C)c1ccc(-c2cccc(COC)c2)cc1 (stereo unspecified)
73 to 75 °C
